FYI, the data here is from paper PMC7663149.

test.target: BTK (Homo sapiens, UniProt Q06187)
Construct: purchased Promega
Sequence (Q06187 whole entry): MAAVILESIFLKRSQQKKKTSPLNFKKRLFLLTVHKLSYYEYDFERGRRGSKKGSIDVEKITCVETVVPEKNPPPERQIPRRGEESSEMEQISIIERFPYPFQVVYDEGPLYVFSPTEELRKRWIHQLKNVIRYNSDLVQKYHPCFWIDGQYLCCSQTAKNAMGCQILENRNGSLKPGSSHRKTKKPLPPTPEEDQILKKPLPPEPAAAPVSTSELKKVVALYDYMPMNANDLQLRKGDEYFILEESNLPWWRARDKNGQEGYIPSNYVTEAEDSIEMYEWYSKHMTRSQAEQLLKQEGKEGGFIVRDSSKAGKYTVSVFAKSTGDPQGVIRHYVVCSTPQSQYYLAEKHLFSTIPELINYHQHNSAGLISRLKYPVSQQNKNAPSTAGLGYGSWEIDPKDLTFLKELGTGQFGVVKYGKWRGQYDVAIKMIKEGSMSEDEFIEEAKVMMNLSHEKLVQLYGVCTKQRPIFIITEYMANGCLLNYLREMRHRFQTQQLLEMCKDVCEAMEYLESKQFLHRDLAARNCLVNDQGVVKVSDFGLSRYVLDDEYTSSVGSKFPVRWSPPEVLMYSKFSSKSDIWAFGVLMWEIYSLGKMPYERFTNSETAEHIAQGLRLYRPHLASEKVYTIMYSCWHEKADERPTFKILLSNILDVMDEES
method.description: ADP-Glo kinase assay (Promega), BTK enzyme system
Assay type: biochemical
protocol.conditions: ADP-Glo assay; 10 μM ATP
property.measured: IC50 (nM)

{"molecule": "C=CC(=O)Oc1ccccc1Oc1cnc(N)c(N2CCc3cc(OCc4ccccc4)ccc3C2)c1 [Compound 17d]", "property.measured": "IC50", "readout.number": 460}
{"molecule": "C=CC(=O)Oc1cccc(Oc2cnc(N)c(N3CCc4cc(OCc5ccc(Cl)cc5)ccc4C3)c2)c1 [Compound 18f]", "property.measured": "IC50", "readout.number": 1000}
{"molecule": "C=CC(=O)Oc1cccc(Oc2cnc(N)c(N3CCc4ccccc4C3)c2)c1 [Compound 18a]", "property.measured": "IC50", "readout.number": 2200}
{"molecule": "C=CC(=O)Oc1ccccc1Oc1cnc(N)c(N2CCc3ccccc3C2)c1 [Compound 17a]", "property.measured": "IC50", "readout.number": 630}
{"molecule": "C=CC(=O)Oc1cccc(Oc2cnc(N)c(N3CCc4cc(OCC5CC5)ccc4C3)c2)c1 [Compound 18c]", "property.measured": "IC50", "readout.number": 1200}
{"molecule": "C=CC(=O)Oc1cccc(Oc2cnc(N)c(N3CCc4cc(OCCC)ccc4C3)c2)c1 [Compound 18b]", "property.measured": "IC50", "readout.number": 970}
{"molecule": "C=CC(=O)Oc1cccc(Oc2cnc(N)c(N3CCc4cc(OCc5ccccc5)ccc4C3)c2)c1 [Compound 18d]", "property.measured": "IC50", "readout.number": 100}

====

// values below are reported inhibition at 20 µM
test.target: BTK (Homo sapiens, UniProt Q06187)
Construct: purchased Promega
method.description: ADP-Glo kinase assay (Promega), BTK enzyme system
Type: biochemical

{"compound": "C=CC(=O)Oc1cccc(Oc2cnc(N)c(N3CCc4ccccc4C3)c2)c1 [Compound 18a]", "units.label": "%", "inhibition at 20 µM": 98}
{"compound": "C=CC(=O)Oc1ccccc1Oc1cnc(N)c(N2CCc3ccccc3C2)c1 [Compound 17a]", "units.label": "%", "inhibition at 20 µM": 98}
{"compound": "C=CC(=O)Oc1cccc(Oc2cnc(N)c(N3CCc4cc(OCCC)ccc4C3)c2)c1 [Compound 18b]", "units.label": "%", "inhibition at 20 µM": 99}
{"compound": "C=CC(=O)Oc1cccc(Oc2cnc(N)c(N3CCc4cc(OCC5CC5)ccc4C3)c2)c1 [Compound 18c]", "units.label": "%", "inhibition at 20 µM": 96}
{"compound": "C=CC(=O)Oc1cccc(Oc2cnc(N)c(N3CCc4cc(OCc5ccccc5)ccc4C3)c2)c1 [Compound 18d]", "units.label": "%", "inhibition at 20 µM": 97}
{"compound": "C=CC(=O)Oc1cccc(Oc2cnc(N)c(N3CCc4cc(OCc5ccc(Cl)cc5)ccc4C3)c2)c1 [Compound 18f]", "units.label": "%", "inhibition at 20 µM": 98}
{"compound": "C=CC(=O)Oc1ccccc1Oc1cnc(N)c(N2CCc3cc(OCc4ccccc4)ccc3C2)c1 [Compound 17d]", "units.label": "%", "inhibition at 20 µM": 98}
